test system: cells secreting atopy associated cytokines; experiment: In vivo FACS of intracellular cytokines in PBLs after external preparation for 5 days in atopic mice; parameters: species or system mouse; conditions: external preparation 1 μg/ml for 5 days, compared to ADC mice given PBS, FIG. 13
Square brackets hold non-standard residues; d marks the D form. Primed or numbered codes have the meaning given here. Ends that are not written are not given here. * marks the point of attachment. PEG4′ = N-terminal cap of 4 polyethylene glycol units (PEG4); Butanoyl(4-maleimido) = O=C1C=CC(=O)N1CCCC(=O)*; Myristoyl = CCCCCCCCCCCCCC(=O)*
MEASURED METRIC: frequency of cells secreting atopy associated cytokines

| SUBSTANCE | TEST RESULT |
| --- | --- |
| Maleimidobutyrol-GCVTVLRCGEIV ({Butanoyl(4-maleimido)}-GCVTVLRCGEIV; cysteine pairing not given here) [A900MAL] | inhibited |
| Myristoyl-GCVTVLRCGEIV (cysteine pairing not given here) [A900M] | inhibited |
| GCVTVLRCGEIV [A900] | inhibited |
| PEG4-GCVTVLRCGEIV ([PEG4′]GCVTVLRCGEIV; cysteine pairing not given here) [A900PEG4] | inhibited |

Taken from patent US20240043474A1.
